study system: Gamma-secretase (Homo sapiens) (UniProt Q96BI3+Q9NZ42+Q8WW43+P49768+Q92542+P49810)
protocol notes: Inhibition of gamma secretase expressed in human H4 cells expressing BRI-C99 fusion protein assessed as C99 fragment accumulation fragment at 10 uM incubated for 16 hrs in by immunoblot
Format: cell-based
Activity calls are given as the source filed them. No cut-off for these calls is given here.
parameter: inhibition

compound	parameter	value reported
COC(=O)[C@@H]1CCCN1C(=O)[C@@H](Cc1ccccc1)N(C)C(=O)[C@H](C)NC(=O)[C@H](CC(C)C)NC(=O)C[C@H](O)[C@H](Cc1ccccc1)NC(=O)c1cc(NS(C)(=O)=O)cc(C(=O)N[C@H](C)c2ccccc2)c1	inhibition	inactive
COC(=O)[C@@H]1CCCN1C(=O)[C@@H](Cc1ccccc1)N(C)C(=O)[C@H](C)NC(=O)[C@H](CC(C)C)NC(=O)C[C@H](O)[C@H](Cc1ccccc1)NC(=O)[C@H](CCC(N)=O)NC(C)=O	inhibition	inactive
COC(=O)[C@@H]1CCCN1C(=O)[C@@H](Cc1ccccc1)N(C)C(=O)[C@H](C)NC(=O)[C@H](CC(C)C)NC(=O)C[C@H](O)[C@H](Cc1ccccc1)NC(=O)c1cc(C(=O)N[C@H](C)c2ccccc2)cc(N(C)S(C)(=O)=O)c1	inhibition	inactive
